Test system: LOX IMVI melanoma
measurement-notes: NCI tumour cell line growth inhibition, 48 h; in the data active means GI50 below about 0.43 µM; inactive means the rest
Where a SMILES comes first, the peptide text is derived from it. [ ]: non-standard residue; d: D form. The star is where a group is joined. Bn2Val = CC(C)[C@@H](C(=O)*)N(Cc1ccccc1)Cc1ccccc1; NH(3,4-diMeO-benzyl) = COc1ccc(CN*)cc1OC; NMeV = CN[C@H](C(=O)O)C(C)C; dNMeA = CN[C@H](C)C(=O)O
Answer with one of the outcomes given here: true (1) (active), false (0) (inactive)

Input line: Each compound tested received a call. Report the one for OC(c1cccc(C(F)(F)F)c1)c1cnccc1NC1CCCCCC1 (stereo not drawn) .
Output line: false (0)

Input line: # iterate: COc1cc2c(c(OC)c1OC)-c1ccc(NCc3ccccc3)c(=O)cc1[C@@H](NC(C)=O)CC2
Output line: false (0)

Input line: Proceed to CC1=C2[C@@H](CC1)[C@]1(C)O[C@@](C(C)C)(C[C@H]1OC(=O)[C@H](C)O)[C@H]2OC(=O)/C=C/c1ccccc1
Output line: false (0)

Input line: Same again, this time with NS(=O)(=O)c1ccc(-n2nc(-c3ccc(Br)cc3)ccc2=O)cc1
Output line: false (0)

Input line: Another compound to check: COc1ccc(CNC(=O)[C@@H](C)N(C)C(=O)[C@@H]2CCCN2C(=O)[C@H](C(C)C)N(C)C(=O)[C@@H](NC(=O)[C@H](C(C)C)N(Cc2ccccc2)Cc2ccccc2)C(C)C)cc1OC (Bn2Val-V[NMeV]P[dNMeA]-{NH(3,4-diMeO-benzyl)})
Output line: false (0)

Input line: Try CC[n+]1ccc2c(c1)C(=O)c1nccc3c1c-2nc1ccccc13 next.
Output line: false (0)

Input line: Thanks! And COc1ccc(-n2cc(-c3ccc(OC)c(OC)c3)[nH]c2=S)cc1Cl ?
Output line: false (0)

Input line: Queued: CCCCCCCCCCCCOC1C(CNCC2OC3OC(C)(C)OC3C2NC(=O)Nc2ccc(C(=O)OCC)cc2)OC2OC(C)(C)OC21 (stereo not drawn)
Output line: false (0)

Input line: Okay, and CN1CCN(Cc2ccc(NC(=O)c3cncc(C#Cc4cnc(N)c5ccccc45)c3)cc2C(F)(F)F)CC1 ?
Output line: true (1)

Input line: Same read-out for Clc1cccc(NC=Nc2ccc(-c3nc4ccccc4s3)cc2)c1 ?
Output line: false (0)

Input line: Item: CNC(=O)c1cc(Oc2ccc3c(c2)sc2nc(-c4ccc(N)cc4)cn23)ccn1
Output line: false (0)

Input line: COc1ccccc1NC(=O)c1ccc(/C=C/C(=O)c2nccn2C)cc1 , same question.
Output line: true (1)

Input line: Repeat with CC(=O)c1ccc(N(/C=C/C(=O)C(F)(F)F)CC(=O)c2ccc(Cl)c(Cl)c2)cc1
Output line: false (0)

###

Would you kindly list GI50 for each of these compounds?
System: RPMI-8226 leukemia
measurement-notes: NCI tumour cell line growth inhibition, 48 h

Input line: Need GI50 of Clc1ccc(Cc2nc3cc4ccccc4cc3[nH]2)cc1 , thanks.
Output line: 9770 nM

Input line: Cool, now N#Cc1c(O)c2c(c(O)c1C#N)C(=O)c1ccccc1C2=O
Output line: 1420 nM

Input line: Proceed to CCOC(=O)c1cc(-c2ccc([N+](=O)[O-])cc2)n(-c2ccc(C(=O)O)c(O)c2)c1C
Output line: 148 nM

Input line: Follow-up item: Fc1ccc(-c2nn(-c3ccccc3)cc2-c2nc3ccccc3o2)cc1
Output line: 1050 nM

Input line: Param item: CCN1CCN(c2nc(NCCNc3ccnc4cc(Cl)ccc34)c3ccccc3n2)CC1
Output line: 1540 nM

Input line: And then NS(=O)(=O)c1ccc(-n2nc(-c3ccc(Br)cc3)ccc2=O)cc1 , what is it?
Output line: > 10000 nM

Input line: Item: ClCc1ccccc1CSc1ncnc2nc[nH]c12
Output line: > 60000 nM

Input line: // next record N#Cc1nc(-c2ccc(F)cc2)oc1S(=O)(=O)N1CCOCC1
Output line: 1550 nM

Input line: What do you get for O=C1c2ccccc2-c2c1c1cc3c(cc1c(=O)n2CCCCl)OCO3 ?
Output line: 78600 nM

Input line: Subsequent entry: COc1ccc(CN2CCCC(C(=O)c3ccc(C(F)(F)F)cc3)C2)c(O)c1 (stereo unspecified)
Output line: 22000 nM

Input line: Proceed to COc1ccc(CNC(=O)COc2ccc(/C=N/Nc3nc4ccccc4s3)cc2)cc1
Output line: 2130 nM

###

Consider the following compounds; for each one, report its GI50.
System: HL-60(TB) leukemia
measurement-notes: NCI tumour cell line growth inhibition, 48 h

Input line: Tell me the measured GI50 of O=C(Cc1ccc(/C=C/C(=O)c2ncc[nH]2)cc1)Nc1ccc(Cl)cc1 , please.
Output line: 3.8 µM

Input line: O=C1c2ccccc2C(=O)c2c1ccc1[nH]c(CCl)nc21 ?
Output line: 2.64 µM

Input line: And COc1nc2c(cc1S(=O)(=O)c1ccccc1)CCc1c-2cnn1-c1ccccc1Cl ?
Output line: 4.98 µM

Input line: Next record, please: S=C1NCCN1C1=Nc2ccccc2CO1
Output line: > 100 µM

Input line: What do we get for O=c1cc(-c2ccc3c(c2)OCCO3)oc2cc(Cl)ccc12 ?
Output line: > 100 µM

Input line: Continue with COc1cccc(-c2nn(-c3ccccc3)cc2-c2ccnc(NCCCNS(=O)(=O)c3cccc(F)c3)c2)c1
Output line: 3.52 µM

###

I'd be grateful if you could share measured TGI for these entries.
System: HCC-2998 colon
measurement-notes: NCI tumour cell line growth inhibition, 48 h

Input line: Reported TGI, molecule O=C(/C=C/c1cccs1)c1ccc(Cl)cc1 : ____
Output line: > 100 µM

Input line: Also check O=C1/C(=C/c2ccc([N+](=O)[O-])cc2)CNC/C1=C\c1ccc([N+](=O)[O-])cc1
Output line: 23.4 µM

Input line: Follow-up entry: Cc1nc2cc(C(F)(F)F)ccc2[nH]c1=O
Output line: > 100 µM

Input line: Next molecule: COC(=O)c1c2c(c(C)[n+]([O-])c1C)C(=O)C=CC2=O
Output line: 3.13 µM

Input line: Field entry: c1ccc(N=c2snc(-c3ccccc3)s2)cc1
Output line: > 100 µM

Input line: Check CN1C(=O)CN(NC(=O)C2=C(O)c3ccc(Br)cc3S(=O)(=O)N2)C1=S too.
Output line: > 100 µM

###

Test system: LXFL 529 NSCLC
measurement-notes: NCI tumour cell line growth inhibition, 48 h
measured-parameter: TGI

Input line: Hello, I am looking for reported TGI with LXFL 529 NSCLC for O=C1CC[C@H]2CNC(=O)C[C@H]2C1 . Could you help?
Output line: > 100 µM

Input line: Now the compound OCc1c(-c2cccc3ccccc23)sc(-c2cccc3ccccc23)c1CO
Output line: 27.6 µM

Input line: Another compound to check: O=C1NC(=O)C2C(=O)NC(=O)C1C2(c1ccccc1)c1ccc(Cl)cc1 (stereo not drawn)
Output line: > 100 µM

###

For each of the molecules below, state its TGI.
Test system: NCI-H226 lung
measurement-notes: NCI tumour cell line growth inhibition, 48 h

Input line: Identify the measured TGI of COc1nc2c(cc1S(=O)(=O)c1ccccc1)CCc1c-2cnn1-c1ccccc1Cl for NCI-H226 lung.
Output line: > 100 µM

Input line: Please answer likewise for O=C(O[C@H](/C=C/c1ccccc1)P1(=O)N(Cc2ccccc2)[C@@H]2CCCC[C@H]2N1Cc1ccccc1)c1ccccc1
Output line: 7.98 µM

Input line: // repeat for CC(=O)/C(=C/n1c(=S)sc2ccccc21)C(=O)Nc1ccccc1C and report
Output line: > 100 µM

Input line: Similarly, CNC(=O)c1cc(Oc2ccc3c(c2)sc2nc(-c4ccc(N)cc4)cn23)ccn1 ?
Output line: > 100 µM

Input line: How about c1ccc(N=c2snc(-c3ccccc3)s2)cc1 ?
Output line: > 100 µM

Input line: Also CCn1c(=O)c2c3cc(O)ccc3oc2c2ccc(O)cc21 ?
Output line: > 100 µM

Input line: Same thing, different molecule: CN(C)c1ccc2c(c1)oc(=O)c1ccccc12
Output line: 31.9 µM

Input line: // repeat for C/C(=N\NC(N)=S)c1ccc(C)cc1C and report
Output line: > 100 µM

Input line: Entry to check: O=C(O)CNC(=O)c1ccc([As](=O)(O)O)cc1
Output line: > 100 µM

Input line: Entry CN(C)S(=O)(=O)Nc1ccccn1 please
Output line: > 100 µM

Input line: Try this molecule next: S=C1NCCN1C1=Nc2ccccc2CO1
Output line: > 100 µM

###

Test system: HT29 colon
measurement-notes: NCI tumour cell line growth inhibition, 48 h
Assignment: determine reported TGI for the given compounds.

Input line: // lookup TGI for NCCCC(N)C(=O)O (stereo unspecified)
Output line: > 100 µM

Input line: One more compound: OCc1ccccc1C1CSCSC1
Output line: > 100 µM

Input line: // repeat for OCCNCO and report
Output line: > 100 µM

Input line: Moving on to the next compound: CC[n+]1ccc2c(c1)C(=O)c1nccc3c1c-2nc1ccccc13
Output line: 23.1 µM

Input line: Then CC1=CC=CC(C)(C)CC1(O[Si](C)(C)C)C(F)(F)F (stereo unspecified) ?
Output line: > 100 µM

Input line: Try this compound too: NNC(=O)c1cnn(-c2ccnc3c(C(F)(F)F)cccc23)c1N
Output line: > 100 µM

Input line: Another: CCCCCCCCCCCCOC1C(CNCC2OC3OC(C)(C)OC3C2NC(=O)Nc2ccc(C(=O)OCC)cc2)OC2OC(C)(C)OC21 (stereo unspecified)
Output line: 3.56 µM

Input line: Param item: ClCc1ccccc1CSc1ncnc2nc[nH]c12
Output line: > 60 µM

Input line: And CCOC(=O)c1cc(-c2ccc([N+](=O)[O-])cc2)n(-c2ccc(C(=O)O)c(O)c2)c1C ?
Output line: 13.3 µM

Input line: Again, but for Cc1cc(C)c2c(n1)S(=O)(=O)N(CCCN1CCN(c3cccc(C(F)(F)F)c3)CC1)/C(=C(\O)c1ccc(Cl)cc1)C2=O
Output line: 13.3 µM

Input line: Now give it for CN(C)CCNc1nc2ccccc2c2[nH]c3ccccc3c12 too.
Output line: > 77.1 µM
